Sourced from Sander's compilation of Henry's law constants (doi:10.1584/jpestics.18.3_201)

# PROCEDURE_DETAILS: Henry solubility constant Hcp at 298.15 K (mol/(m3 Pa))
# SETUP_CONDITIONS: reference: Watanabe (1993)
Each record gets a class by Henry solubility constant Hcp: low range = under 20, mid range = from 20 up to 200, high range = 200 and over

[
  {
    "MOLECULE": "CCOC(=O)CC(SP(=S)(OC)OC)C(=O)OCC (stereo not given)",
    "CATEGORY_LABEL": "high range"
  },
  {
    "MOLECULE": "COP(=S)(OC)Oc1ccc([N+](=O)[O-])c(C)c1",
    "CATEGORY_LABEL": "mid range"
  },
  {
    "MOLECULE": "CCCN(CCC)c1c([N+](=O)[O-])cc(C(F)(F)F)cc1[N+](=O)[O-]",
    "CATEGORY_LABEL": "low range"
  },
  {
    "MOLECULE": "CCC(C)c1ccccc1OC(=O)NC (stereo not given)",
    "CATEGORY_LABEL": "mid range"
  },
  {
    "MOLECULE": "CC(C)OC(=O)Nc1cccc(Cl)c1",
    "CATEGORY_LABEL": "mid range"
  },
  {
    "MOLECULE": "CCN(CC)C(=O)SCc1ccc(Cl)cc1 [S-(4-chlorobenzyl) diethylthiocarbamate]",
    "CATEGORY_LABEL": "low range"
  },
  {
    "MOLECULE": "CC(C)OP(=O)(OC(C)C)SCc1ccccc1",
    "CATEGORY_LABEL": "high range"
  },
  {
    "MOLECULE": "CCOP(=S)(OCC)Oc1cc(C)nc(C(C)C)n1",
    "CATEGORY_LABEL": "low range"
  },
  {
    "MOLECULE": "CCCCOCN(C(=O)CCl)c1c(CC)cccc1CC",
    "CATEGORY_LABEL": "mid range"
  },
  {
    "MOLECULE": "CNC(=O)Oc1ccc(C)c(C)c1",
    "CATEGORY_LABEL": "mid range"
  }
]
